pKi: −log10 of the molar value.
Values of pKi reported for porcine 5-HT2R (Sus scrofa) appear below.

>  <compound>
CN(C)c1cccc2c(S(=O)(=O)NCc3ccc(-n4cc(CCCCN5CCN(c6cccc(Cl)c6Cl)CC5)nn4)cc3)cccc12 [4b]

>  <assay-target>
porcine 5-HT2R (Sus scrofa)
Sequence (P50129 whole entry): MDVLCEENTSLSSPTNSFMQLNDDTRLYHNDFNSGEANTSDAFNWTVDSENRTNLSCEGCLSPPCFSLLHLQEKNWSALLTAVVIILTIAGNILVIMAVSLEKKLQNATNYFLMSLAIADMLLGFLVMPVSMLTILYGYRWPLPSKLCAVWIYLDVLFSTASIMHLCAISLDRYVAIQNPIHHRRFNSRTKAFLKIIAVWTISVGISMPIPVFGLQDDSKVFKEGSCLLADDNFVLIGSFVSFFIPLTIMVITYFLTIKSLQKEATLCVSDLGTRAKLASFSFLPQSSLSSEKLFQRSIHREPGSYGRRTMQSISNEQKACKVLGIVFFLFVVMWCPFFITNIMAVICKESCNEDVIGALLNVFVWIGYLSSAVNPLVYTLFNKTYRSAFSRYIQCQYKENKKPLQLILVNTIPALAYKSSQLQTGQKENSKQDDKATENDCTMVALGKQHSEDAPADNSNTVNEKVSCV

>  <result-modifier>
=

>  <pKi>
6.41

$$$$
>  <compound>
CC(C)(C)c1nc(N2CCN(CCCCc3cn(-c4ccc(C#N)cc4)nn3)CC2)cc(C(F)(F)F)n1 [2d]

>  <assay-target>
porcine 5-HT2R (Sus scrofa)

>  <result-modifier>
=

>  <pKi>
5.36

$$$$
>  <compound>
CCCN(CCCCc1cn(-c2ccc(C(=O)NCCCNS(=O)(=O)c3cccc4c(N(C)C)cccc34)cc2)nn1)C1Cc2ccccc2C1 [8a]

>  <assay-target>
porcine 5-HT2R (Sus scrofa)

>  <result-modifier>
=

>  <pKi>
6.16

$$$$
>  <compound>
COc1ccccc1N1CCN(CCCCc2cn(-c3ccc(CNS(=O)(=O)c4cccc5c(N(C)C)cccc45)cc3)nn2)CC1 [4c]

>  <assay-target>
porcine 5-HT2R (Sus scrofa)

>  <result-modifier>
=

>  <pKi>
6.35

$$$$
>  <compound>
COc1ccccc1N1CCN(CCCCc2cn(-c3ccc(C#N)cc3)nn2)CC1 [2c]

>  <assay-target>
porcine 5-HT2R (Sus scrofa)

>  <result-modifier>
=

>  <pKi>
6.22

$$$$
>  <compound>
CN(C)c1cccc2c(S(=O)(=O)NCCCNC(=O)c3ccc(-n4cc(CCCCN5CCN(c6cccc(Cl)c6Cl)CC5)nn4)cc3)cccc12 [8b]

>  <assay-target>
porcine 5-HT2R (Sus scrofa)

>  <result-modifier>
=

>  <pKi>
6.42

$$$$
>  <compound>
CN(C)c1cccc2c(S(=O)(=O)NCc3ccc(-n4cc(CCCCN5CCN(c6cc(C(F)(F)F)nc(C(C)(C)C)n6)CC5)nn4)cc3)cccc12 [4d]

>  <assay-target>
porcine 5-HT2R (Sus scrofa)

>  <result-modifier>
<

>  <pKi>
5.00

$$$$
>  <compound>
CCCN(CCCCc1cn(-c2ccc(C(=O)NCCCNC(=O)Cc3ccc4c(c3)C(C)(C)C3=C5C=C6C7=[N+](CCC6OC5CCN34)c3ccc(S(=O)(=O)[O-])cc3C7(C)C)cc2)nn1)C1Cc2ccccc2C1 (stereo not drawn) [10b]

>  <assay-target>
porcine 5-HT2R (Sus scrofa)

>  <result-modifier>
=

>  <pKi>
6.48

$$$$
>  <compound>
CCCN(CCCCc1cn(-c2ccc(C#N)cc2)nn1)C1Cc2ccccc2C1 [2a]

>  <assay-target>
porcine 5-HT2R (Sus scrofa)

>  <result-modifier>
=

>  <pKi>
6.07

$$$$

---

# assay-target: D2SR (Homo sapiens, UniProt P14416)
# Sequence (P14416 1-414 isoform P14416-2): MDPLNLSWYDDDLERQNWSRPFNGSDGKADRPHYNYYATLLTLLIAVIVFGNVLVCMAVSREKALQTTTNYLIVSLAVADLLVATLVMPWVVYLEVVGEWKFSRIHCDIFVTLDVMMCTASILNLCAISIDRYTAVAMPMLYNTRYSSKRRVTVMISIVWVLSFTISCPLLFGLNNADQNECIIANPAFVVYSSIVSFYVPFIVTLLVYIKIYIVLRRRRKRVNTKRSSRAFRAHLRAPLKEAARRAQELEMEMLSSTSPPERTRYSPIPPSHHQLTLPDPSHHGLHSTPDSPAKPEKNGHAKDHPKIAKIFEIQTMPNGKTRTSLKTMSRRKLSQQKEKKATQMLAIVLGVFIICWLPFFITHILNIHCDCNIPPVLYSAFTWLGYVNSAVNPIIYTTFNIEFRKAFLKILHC
# experimental-details: Radioligand competition, [3H]spiperone, CHO cell membranes
metric: log10 Ki (log10 of the value in nM)

>  <compound>
CCCN(CCCCc1cn(-c2ccc(C(=O)NCCCN)cc2)nn1)C1Cc2ccccc2C1

>  <assay-target>
D2SR (Homo sapiens, UniProt P14416)

>  <numeric-result>
0.26

$$$$
>  <compound>
CN(C)c1cccc2c(S(=O)(=O)NCc3ccc(-n4cc(CCCCN5CCN(c6cccc(Cl)c6Cl)CC5)nn4)cc3)cccc12

>  <assay-target>
D2SR (Homo sapiens, UniProt P14416)

>  <numeric-result>
0.71

$$$$
>  <compound>
CC(C)(C)c1nc(N2CCN(CCCCc3cn(-c4ccc(C#N)cc4)nn3)CC2)cc(C(F)(F)F)n1

>  <assay-target>
D2SR (Homo sapiens, UniProt P14416)

>  <numeric-result>
2.54

$$$$
>  <compound>
CN(C)c1cccc2c(S(=O)(=O)NCCCNC(=O)c3ccc(-n4cc(CCCCN5CCN(c6cccc(Cl)c6Cl)CC5)nn4)cc3)cccc12

>  <assay-target>
D2SR (Homo sapiens, UniProt P14416)

>  <numeric-result>
0.56

$$$$
>  <compound>
CCCN(CCCCc1cn(-c2ccc(CNC(=O)c3ccc(-c4c5ccc(=NCC(F)(F)F)cc-5oc5cc(NCC(F)(F)F)ccc45)c(C(=O)O)c3)cc2)nn1)C1Cc2ccccc2C1 [10a]

>  <assay-target>
D2SR (Homo sapiens, UniProt P14416)

>  <numeric-result>
1.32

$$$$
>  <compound>
CCCN(CCCCc1cn(-c2ccc(C#N)cc2)nn1)C1Cc2ccccc2C1

>  <assay-target>
D2SR (Homo sapiens, UniProt P14416)

>  <numeric-result>
0.81

$$$$
>  <compound>
CCCN(CCCCc1cn(-c2ccc(CNS(=O)(=O)c3cccc4c(N(C)C)cccc34)cc2)nn1)C1Cc2ccccc2C1

>  <assay-target>
D2SR (Homo sapiens, UniProt P14416)

>  <numeric-result>
0.23

$$$$
>  <compound>
COc1ccccc1N1CCN(CCCCc2cn(-c3ccc(C#N)cc3)nn2)CC1

>  <assay-target>
D2SR (Homo sapiens, UniProt P14416)

>  <numeric-result>
1.53

$$$$

---

# assay-target: porcine α1-AR
# experimental-details: Radioligand competition, [3H]prazosin, porcine cerebral cortex homogenates
# condition-description: read-out: Ki pα1-AR, mean of n experiments
So basically: is Ki under 100 nM? Then True. Not under? Then False.

>  <compound>
COc1ccccc1N1CCN(CCCCc2cn(-c3ccc(CNS(=O)(=O)c4cccc5c(N(C)C)cccc45)cc3)nn2)CC1

>  <label-value>
True

$$$$
>  <compound>
CN(C)c1cccc2c(S(=O)(=O)NCc3ccc(-n4cc(CCCCN5CCN(c6cc(C(F)(F)F)nc(C(C)(C)C)n6)CC5)nn4)cc3)cccc12

>  <label-value>
False

$$$$
>  <compound>
COc1ccccc1N1CCN(CCCCc2cn(-c3ccc(C#N)cc3)nn2)CC1

>  <label-value>
True

$$$$
>  <compound>
CN(C)c1cccc2c(S(=O)(=O)NCCCNC(=O)c3ccc(-n4cc(CCCCN5CCN(c6cccc(Cl)c6Cl)CC5)nn4)cc3)cccc12

>  <label-value>
True

$$$$
>  <compound>
CCCN(CCCCc1cn(-c2ccc(C#N)cc2)nn1)C1Cc2ccccc2C1

>  <label-value>
True

$$$$
>  <compound>
CCCN(CCCCc1cn(-c2ccc(C(=O)NCCCNC(=O)c3ccc(-c4c5ccc(=N)c(S(=O)(=O)O)c-5oc5c(S(=O)(=O)O)c(N)ccc45)c(C(=O)O)c3)cc2)nn1)C1Cc2ccccc2C1 [10c]

>  <label-value>
False

$$$$

---

# assay-target: human isoform of D1R (Homo sapiens)
# Sequence (P21728 whole entry, canonical isoform): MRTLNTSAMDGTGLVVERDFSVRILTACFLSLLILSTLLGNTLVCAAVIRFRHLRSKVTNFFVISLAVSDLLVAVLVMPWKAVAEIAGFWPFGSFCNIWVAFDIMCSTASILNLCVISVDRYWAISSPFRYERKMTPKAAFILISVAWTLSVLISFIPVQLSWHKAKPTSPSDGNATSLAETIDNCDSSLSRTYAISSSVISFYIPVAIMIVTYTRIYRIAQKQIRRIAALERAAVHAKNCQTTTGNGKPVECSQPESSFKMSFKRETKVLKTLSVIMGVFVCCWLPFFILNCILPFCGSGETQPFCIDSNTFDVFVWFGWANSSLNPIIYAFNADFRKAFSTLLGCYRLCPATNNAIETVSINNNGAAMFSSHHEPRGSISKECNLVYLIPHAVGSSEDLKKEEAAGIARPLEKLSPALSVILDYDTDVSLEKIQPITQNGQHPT
# experimental-details: Radioligand competition at human isoform of D1R
# Type: binding
# condition-description: assay performed with human isoform of D1R; [3H]SCH23,390 column
metric: Ki

>  <molecule>
CCCN(CCCCc1cn(-c2ccc(CNC(=O)c3ccc(-c4c5ccc(=NCC(F)(F)F)cc-5oc5cc(NCC(F)(F)F)ccc45)c(C(=O)O)c3)cc2)nn1)C1Cc2ccccc2C1 [10a]

>  <result>
310 nM

$$$$

---

# assay-target: D2SR (Homo sapiens)
# experimental-details: Radioligand competition, [3H]spiperone, CHO cell membranes
# condition-description: read-out: Ki hD2SR; [3H]spiperone; mean ± SEM
pKi: −log10 of the molar value.

>  <compound>
CCCN(CCCCc1cn(-c2ccc(C(=O)NCCCNC(=O)c3ccc(-c4c5ccc(=N)c(S(=O)(=O)O)c-5oc5c(S(=O)(=O)O)c(N)ccc45)c(C(=O)O)c3)cc2)nn1)C1Cc2ccccc2C1 [10c]

>  <pKi>
7.82

$$$$
>  <compound>
CCCN(CCCCc1cn(-c2ccc(C(=O)NCCCNC(=O)Cc3ccc4c(c3)C(C)(C)C3=C5C=C6C7=[N+](CCC6OC5CCN34)c3ccc(S(=O)(=O)[O-])cc3C7(C)C)cc2)nn1)C1Cc2ccccc2C1 (centres unmarked) [10b]

>  <pKi>
8.32

$$$$

---

# assay-target: porcine D1R (Sus scrofa)
# Sequence (P50130 whole entry): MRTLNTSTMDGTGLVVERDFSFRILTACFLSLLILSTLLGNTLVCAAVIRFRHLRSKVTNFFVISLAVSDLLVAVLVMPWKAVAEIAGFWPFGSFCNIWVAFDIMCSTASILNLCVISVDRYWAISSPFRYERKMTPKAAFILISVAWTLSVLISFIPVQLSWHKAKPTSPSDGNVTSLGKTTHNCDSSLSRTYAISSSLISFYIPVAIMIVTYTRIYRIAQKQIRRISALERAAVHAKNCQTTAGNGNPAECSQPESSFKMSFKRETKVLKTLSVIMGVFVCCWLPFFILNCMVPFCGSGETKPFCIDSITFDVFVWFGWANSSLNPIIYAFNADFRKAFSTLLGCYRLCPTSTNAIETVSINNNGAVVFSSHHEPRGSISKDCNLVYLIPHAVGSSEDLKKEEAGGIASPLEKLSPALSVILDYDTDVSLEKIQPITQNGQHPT
pKi: −log10 of the molar value.

>  <molecule>
CN(C)c1cccc2c(S(=O)(=O)NCc3ccc(-n4cc(CCCCN5CCN(c6cccc(Cl)c6Cl)CC5)nn4)cc3)cccc12

>  <assay-target>
porcine D1R (Sus scrofa)

>  <result-modifier>
=

>  <pKi>
6.72

$$$$
>  <molecule>
CN(C)c1cccc2c(S(=O)(=O)NCc3ccc(-n4cc(CCCCN5CCN(c6cc(C(F)(F)F)nc(C(C)(C)C)n6)CC5)nn4)cc3)cccc12

>  <assay-target>
porcine D1R (Sus scrofa)

>  <result-modifier>
<

>  <pKi>
5.00

$$$$
>  <molecule>
COc1ccccc1N1CCN(CCCCc2cn(-c3ccc(C#N)cc3)nn2)CC1

>  <assay-target>
porcine D1R (Sus scrofa)

>  <result-modifier>
=

>  <pKi>
5.96

$$$$
>  <molecule>
CCCN(CCCCc1cn(-c2ccc(C(=O)NCCCNC(=O)c3ccc(-c4c5ccc(=N)c(S(=O)(=O)O)c-5oc5c(S(=O)(=O)O)c(N)ccc45)c(C(=O)O)c3)cc2)nn1)C1Cc2ccccc2C1 [10c]

>  <assay-target>
porcine D1R (Sus scrofa)

>  <result-modifier>
=

>  <pKi>
5.29

$$$$
>  <molecule>
CN(C)c1cccc2c(S(=O)(=O)NCCCNC(=O)c3ccc(-n4cc(CCCCN5CCN(c6cccc(Cl)c6Cl)CC5)nn4)cc3)cccc12

>  <assay-target>
porcine D1R (Sus scrofa)

>  <result-modifier>
=

>  <pKi>
6.47

$$$$
